Consider the following compounds and their measured IC50 readings.
- TARGET UNDER TEST: Recombinant STAT6 protein (STAT6 (W123-T658)) (Homo sapiens, UniProt P42226)
- Construct: Recombinant STAT6 protein (STAT6 (W123-T658))
- Sequence (P42226 123-658): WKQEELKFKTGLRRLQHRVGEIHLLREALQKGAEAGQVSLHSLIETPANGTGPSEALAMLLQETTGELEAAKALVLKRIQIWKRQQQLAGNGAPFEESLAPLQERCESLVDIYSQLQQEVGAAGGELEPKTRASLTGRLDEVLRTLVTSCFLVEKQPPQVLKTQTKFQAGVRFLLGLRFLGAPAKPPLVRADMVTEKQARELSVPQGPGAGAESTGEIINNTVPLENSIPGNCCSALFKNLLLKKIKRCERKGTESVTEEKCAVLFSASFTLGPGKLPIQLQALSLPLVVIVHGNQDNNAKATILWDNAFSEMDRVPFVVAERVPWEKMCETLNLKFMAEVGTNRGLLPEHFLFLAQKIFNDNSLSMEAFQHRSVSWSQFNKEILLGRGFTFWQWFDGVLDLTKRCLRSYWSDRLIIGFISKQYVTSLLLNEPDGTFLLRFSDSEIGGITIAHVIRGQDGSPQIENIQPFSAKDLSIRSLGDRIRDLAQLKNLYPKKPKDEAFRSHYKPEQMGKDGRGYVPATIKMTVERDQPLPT
- PROCEDURE DETAILS: STAT6 Fluorescence Polarization (FP) Assay
- Format: binding
- MEASUREMENT CONDITIONS: STAT6 (W123-T658) 250 nM, probe 5-FAM-Ap[…]-NH2 2 nM, 45-minute incubation; read-out: STAT6 (FP assay IC50 class)

CN1CCN(C(=O)[C@@H]2CC[C@@H]3CCC[C@H](NC(=O)c4cc5cc(C(F)P(=O)(O)O)ccc5s4)C(=O)N32)c2ccccc21 (some centres unmarked) [Compound 763] tested on Recombinant STAT6 protein (STAT6 (W123-T658)) (Homo sapiens, UniProt P42226) gave IC50: 3 to 30 µM

CO[C@H]1CCN(c2ccncc2C2CN(C(=O)[C@@H]3CC[C@@H]4CCC[C@H](NC(=O)c5cc6cc(CP(=O)(O)O)ccc6s5)C(=O)N43)C2)C1 [Compound 686] tested on Recombinant STAT6 protein (STAT6 (W123-T658)) (Homo sapiens, UniProt P42226) gave IC50: 3 to 30 µM

CN(C)c1ncncc1C1CN(C(=O)[C@@H]2CC[C@@H]3CCC[C@H](NC(=O)c4cc5cc([C@H](F)P(=O)(O)O)ccc5s4)C(=O)N32)C1 (single isomer, unassigned) [Compound 665] tested on Recombinant STAT6 protein (STAT6 (W123-T658)) (Homo sapiens, UniProt P42226) gave IC50: 3 to 30 µM

CCc1ccncc1C1CN(C(=O)[C@@H]2CC[C@@H]3CCC[C@H](NC(=O)c4ccc5sc(CP(=O)(O)O)cc5c4)C(=O)N32)C1 [Compound 576] tested on Recombinant STAT6 protein (STAT6 (W123-T658)) (Homo sapiens, UniProt P42226) gave IC50: 3 to 30 µM

O=C(N[C@H]1CCCC[C@H]2CC[C@@H](C(=O)N3CCc4[nH]ncc4C3)N2C1=O)c1cc2cc(C(F)(F)P(=O)(O)O)ccc2s1 [Compound 802] tested on Recombinant STAT6 protein (STAT6 (W123-T658)) (Homo sapiens, UniProt P42226) gave IC50: 0.3 to 3 µM

###

- TARGET UNDER TEST: Recombinant STAT3 protein (STAT3 (G127-I722)) (Homo sapiens, UniProt P40763)
- Construct: Recombinant STAT3 protein (STAT3 (G127-I722))
- Sequence (P40763 127-722): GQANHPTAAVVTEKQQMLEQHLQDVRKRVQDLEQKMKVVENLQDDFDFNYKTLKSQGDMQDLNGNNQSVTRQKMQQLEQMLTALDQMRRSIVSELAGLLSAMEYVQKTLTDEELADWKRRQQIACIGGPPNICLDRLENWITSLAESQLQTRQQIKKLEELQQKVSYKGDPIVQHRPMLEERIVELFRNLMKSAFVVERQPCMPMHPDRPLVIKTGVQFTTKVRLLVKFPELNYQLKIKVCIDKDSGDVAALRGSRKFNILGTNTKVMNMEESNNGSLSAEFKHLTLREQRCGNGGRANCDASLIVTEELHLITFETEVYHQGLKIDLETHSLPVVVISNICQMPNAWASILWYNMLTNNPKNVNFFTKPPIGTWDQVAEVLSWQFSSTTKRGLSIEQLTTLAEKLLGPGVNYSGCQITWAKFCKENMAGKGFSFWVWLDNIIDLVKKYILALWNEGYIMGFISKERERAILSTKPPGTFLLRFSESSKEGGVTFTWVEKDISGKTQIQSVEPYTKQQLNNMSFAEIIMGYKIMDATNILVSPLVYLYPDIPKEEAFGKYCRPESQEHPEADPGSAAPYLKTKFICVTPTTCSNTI
- PROCEDURE DETAILS: STAT3 Fluorescence Polarization (FP) Assay
- Assay type: binding
- MEASUREMENT CONDITIONS: STAT3 (G127-I722) 25 nM, probe 5-FAM-GpYLPQTV-NH2 2 nM, 45-minute incubation; read-out: STAT3 (FP assay IC50 class)
VALUE TYPE: IC50

molecule=Cn1c(C2CN(C(=O)[C@@H]3CC[C@@H]4CCCC[C@H](NC(=O)c5cc6cc(CP(=O)(O)O)ccc6s5)C(=O)N43)C2)nc2ccccc21 target_under_test="Recombinant STAT3 protein (STAT3 (G127-I722)) (Homo sapiens, UniProt P40763)" observed_measurement="1 to 10 µM"
molecule=CC(C)n1cc(N(C)C(=O)[C@@H]2CC[C@@H]3CCCC[C@H](NC(=O)c4cc5cc(C(F)(F)P(=O)(O)O)ccc5s4)C(=O)N32)cn1 target_under_test="Recombinant STAT3 protein (STAT3 (G127-I722)) (Homo sapiens, UniProt P40763)" observed_measurement="1 to 10 µM"
molecule=Cc1ccncc1C1CN(C(=O)[C@@H]2CC[C@@H]3CCC[C@H](NC(=O)c4cc5cc(C(F)(F)P(=O)(O)O)ccc5s4)C(=O)N32)C1 target_under_test="Recombinant STAT3 protein (STAT3 (G127-I722)) (Homo sapiens, UniProt P40763)" observed_measurement="> 10 µM"
molecule=CC1(c2ccccn2)CN(C(=O)[C@@H]2CC[C@@H]3CCC[C@H](NC(=O)c4cc5cc(CP(=O)(O)O)ccc5s4)C(=O)N32)C1 target_under_test="Recombinant STAT3 protein (STAT3 (G127-I722)) (Homo sapiens, UniProt P40763)" observed_measurement="1 to 10 µM"
molecule=O=C(N[C@H]1CCC[C@H]2CC[C@@H](C(=O)N3CC(c4cnccc4C(F)F)C3)N2C1=O)c1cc2cc(C(F)(F)P(=O)(O)O)ccc2s1 target_under_test="Recombinant STAT3 protein (STAT3 (G127-I722)) (Homo sapiens, UniProt P40763)" observed_measurement="0.1 to 1 µM"
molecule="N#CC1CN(C(=O)[C@@H]2C[C@@H](O)[C@@H]3C/C=C\\C[C@H](NC(=O)c4cc5cc(C(F)(F)P(=O)(O)O)ccc5s4)C(=O)N23)CC1c1ccccc1 (mixture of isomers)" target_under_test="Recombinant STAT3 protein (STAT3 (G127-I722)) (Homo sapiens, UniProt P40763)" observed_measurement="0.1 to 1 µM"
molecule="O=C(N[C@H]1CCCC[C@H]2CC[C@@H](C(=O)N3C[C@@H](c4ccccc4)CC34CC4)N2C1=O)c1cc2cc(C(F)(F)P(=O)(O)O)ccc2s1 (single isomer, unassigned) [Compound 889]" target_under_test="Recombinant STAT3 protein (STAT3 (G127-I722)) (Homo sapiens, UniProt P40763)" observed_measurement="1 to 10 µM"
molecule=O=C(N[C@H]1CCC[C@H]2CC[C@@H](C(=O)N3CC(c4cnccc4N4CC(OC(F)F)C4)C3)N2C1=O)c1cc2cc([C@@H](F)P(=O)(O)O)ccc2s1 target_under_test="Recombinant STAT3 protein (STAT3 (G127-I722)) (Homo sapiens, UniProt P40763)" observed_measurement="< 0.1 µM"
molecule="O=C(N[C@H]1CCCC[C@H]2CC[C@@H](C(=O)N3CCC(c4ncncc4F)CC3)N2C1=O)c1cc2cc(C(F)P(=O)(O)O)ccc2s1 (some centres unmarked)" target_under_test="Recombinant STAT3 protein (STAT3 (G127-I722)) (Homo sapiens, UniProt P40763)" observed_measurement="1 to 10 µM"
molecule="O=C(N[C@H]1CCCC[C@H]2CC[C@@H](C(=O)N3CCC(c4cccnc4)CC3)N2C1=O)c1cc2cc(C(F)P(=O)(O)O)ccc2s1 (some centres unmarked)" target_under_test="Recombinant STAT3 protein (STAT3 (G127-I722)) (Homo sapiens, UniProt P40763)" observed_measurement="0.1 to 1 µM"

// IC50 value for `O=C(N[C@H]1CCC[C@H]2CC[C@@H](C(=O)N3CC(c4cnccc4Cl)C3)N2C1=O)c1cc2cc(CP(=O)(O)O)ccc2s1` : 1 to 10 µM

###

- TARGET UNDER TEST: Recombinant STAT3 protein (STAT3 (G127-I722)) (Homo sapiens, UniProt P40763)
- Construct: Recombinant STAT3 protein (STAT3 (G127-I722))
- PROCEDURE DETAILS: STAT3 Fluorescence Polarization (FP) Assay
- Type: binding
- MEASUREMENT CONDITIONS: STAT3 25 nM, probe 5-FAM-GpYLPQTV-NH2 2 nM, 45-minute incubation; read-out: STAT3 (FP assay IC50)
pIC50: −log10 of the molar value.
VALUE TYPE: pIC50

Below, 5 compounds whose answers are already recorded.
compound="O=C(N[C@H]1CCCC[C@H]2CC[C@@H](C(=O)N3CC(c4c[nH]cn4)C3)N2C1=O)c1cc2cc(C(F)(F)P(=O)(O)O)ccc2s1 [Compound 67]" target_under_test="Recombinant STAT3 protein (STAT3 (G127-I722)) (Homo sapiens, UniProt P40763)" observed_measurement="> 7.00"
compound="O=C(N[C@H]1CC2(CC[C@H]3CC[C@@H](C(=O)N4CC(C(=O)N5CCOCC5)C4)N3C1=O)CC2)c1cc2cc(C(F)(F)P(=O)(O)O)ccc2s1 [Compound 115]" target_under_test="Recombinant STAT3 protein (STAT3 (G127-I722)) (Homo sapiens, UniProt P40763)" observed_measurement="> 7.00"
compound="O=C(N[C@H]1CCC2(CC2)C[C@H]2CC[C@@H](C(=O)N3CC(C(=O)N4CCOCC4)C3)N2C1=O)c1cc2cc(C(F)(F)P(=O)(O)O)ccc2s1 [Compound 114]" target_under_test="Recombinant STAT3 protein (STAT3 (G127-I722)) (Homo sapiens, UniProt P40763)" observed_measurement="> 7.00"
compound="C[C@@H]1C[C@H]2CC[C@@H](C(=O)N3CC(c4cccnc4)C3)N2C(=O)[C@@H](NC(=O)c2cc3cc(C(F)(F)P(=O)(O)O)ccc3s2)C1 (single isomer, unassigned) [Compound 110]" target_under_test="Recombinant STAT3 protein (STAT3 (G127-I722)) (Homo sapiens, UniProt P40763)" observed_measurement="> 7.00"
compound="N#C[C@H]1CN(C(=O)[C@@H]2CC[C@@H]3CCCC[C@H](NC(=O)c4ccc5ccc(C(F)(F)P(=O)(O)O)cc5c4)C(=O)N32)C[C@@H]1c1cc[nH]c(=O)c1 (single isomer, unassigned) [Compound 80]" target_under_test="Recombinant STAT3 protein (STAT3 (G127-I722)) (Homo sapiens, UniProt P40763)" observed_measurement="6.00 to 7.00"

// pIC50 value for CS(=N)(=O)CC1CN(C(=O)[C@@H]2CC[C@@H]3CCC[C@H](NC(=O)c4cc5cc(C(F)(F)P(=O)(O)O)ccc5s4)C(=O)N32)C1 (stereo partly shown) [Compound 32] : > 7.00

// pIC50 value for CS(=N)(=O)C1CN(C(=O)[C@@H]2CC[C@@H]3CCCC[C@H](NC(=O)c4cc5cc(C(F)(F)P(=O)(O)O)ccc5s4)C(=O)N32)C1 (stereo partly shown) [Compound 73] : 6.00 to 7.00
